Measured values drawn from PubChem BioAssay (Tox21) for this set.

- method notes: qHTS assay to test for compound auto fluorescence at 590 nm (red) in HepG2 cells (AID 720674); also: % is scaled to controls: 0 for no effect and ±100 for the full control effect
- condition description: HepG2 autofluorescence, red 540/590 nm, 1 h; series mostly up to 91.3 µM
Calls of active or inactive are those of the source. Calls follow the shape of the dose curve; as a rule, active = well fitted curve in the direction sought with a large enough effect in the repeat runs; inconclusive = weak or mixed curves; inactive = flat fitted curve, though single readings scatter.
property label: fluorescence, relative to Rose Bengal

Answered examples (6):
Query: fluorescence, relative to Rose Bengal; subject: CC(C)CCCC(C)(C)O inactive

# fluorescence, relative to Rose Bengal lookup, item COC(=O)CCCCCCCC(=O)OC inactive

Which fluorescence, relative to Rose Bengal value is on record for CC(=O)CCCCn1c(=O)c2c(ncn2C)n(C)c1=O ? 0.0631% [at 18.6 µM] (inactive)

fluorescence, relative to Rose Bengal lookup needed for CCC(C=O)CC , thanks. inactive

Report fluorescence, relative to Rose Bengal for CN(CCOc1ccc(NS(C)(=O)=O)cc1)CCc1ccc(NS(C)(=O)=O)cc1 please. inactive

Sample O=C1c2cccc3c2[C@H](CCC3)CN1[C@@H]1CN2CCC1CC2 — what was its fluorescence, relative to Rose Bengal? inactive

For each listed entry, give its fluorescence, relative to Rose Bengal.
1. Cc1cc(C(C)(C)C)c(O)c(C)c1CC1=NCCN1
2. C=C(C)C(=O)OCCOP(=O)(O)OCCOC(=O)C(=C)C
3. Cc1ccc(S(=O)(=O)O)c(C)c1

1. inactive
2. inactive
3. inactive

List the reported fluorescence, relative to Rose Bengal of each molecule below.
1. O=C(OCC1(COC(=O)c2cccnc2)CCCC(COC(=O)c2cccnc2)(COC(=O)c2cccnc2)C1O)c1cccnc1
2. C=COCCOCCOCCOC=C
3. Cc1cc2cc3c(C)cc(=O)oc3c(C)c2o1
4. NS(=O)(=O)c1ccc(NC(=O)CCC(=O)O)cc1
5. C[C@@H](O)[C@H]1C(=O)N2C(C(=O)O)=C(SCCN=CN)C[C@H]12
6. O=C(/N=N/C(=O)OCc1ccccc1)OCc1ccccc1
7. Cc1cc(NC(=O)C2=C(O)c3ccccc3S(=O)(=O)N2C)no1

["inactive", "inactive", "0.738% [at 18.6 µM] (inactive)", "inactive", "-0.493% [at 18.6 µM] (inactive)", "inactive", "inactive"]

Go through the items and report each one's fluorescence, relative to Rose Bengal.
1. N[C@@H](CCC(=O)Nc1ccc([N+](=O)[O-])cc1)C(=O)O
2. COc1ccc(C2CNC(=O)C2)cc1OC1CCCC1 (configuration not stated)
3. Cc1ccc(C=O)cc1C
4. C=CCCCCCCCCCCCC
5. CCN(C)C(=O)Oc1cccc([C@H](C)N(C)C)c1
6. CC(C)(C)c1cc(CCC(=O)NN)cc(C(C)(C)C)c1O

1. inactive
2. -0.195% [at 18.6 µM] (inactive)
3. inactive
4. inactive
5. inactive
6. inactive
